System: NCI/ADR-RES
Test: NCI tumour cell line growth inhibition, 48 h
Active and inactive are the calls of the source. Rule as the data show it: active = GI50 up to about 1.1 µM and inactive = higher.
Give one outcome, nothing more. List: 1 (active), 0 (inactive)

Short answer needed: outcome of this test for `O=C(/C=C/c1ccccc1)c1ccccc1` ?
0

Short answer needed: outcome of this test for CCC(C)[C@@H](NC1=C(Cl)C(=O)c2c(O)ccc(O)c2C1=O)C(=O)OC (stereo partly drawn) ?
0

Short answer needed: outcome of this test for `S=C(N1CCN(c2ccccc2)CC1)N1CCN(c2ccccc2)CC1` ?
0

Short answer needed: outcome of this test for O=NN1C(c2ccccc2)C2CCCC(C2=O)C1c1ccccc1 (stereo not drawn) ?
0

Short answer needed: outcome of this test for `O=S1(=O)OCCCOS(=O)(=O)C1Br` ?
0

Short answer needed: outcome of this test for `COC(=O)C1=C(CCC[C@H](C)O[Si](C)(C)C(C)(C)C)NC(=O)N2[C@@H](CCO)CC[C@H]12` ?
0

Short answer needed: outcome of this test for `O=C(O)c1cnc2cc(OCc3ccccc3)ccc2c1O` ?
0

Short answer needed: outcome of this test for CCSC(=O)N1c2ccc(OC)cc2C=CC1C#N (stereo not drawn) ?
1

Short answer needed: outcome of this test for `NNC(=O)c1c(SCc2ccccc2)nc2c3ccccc3ccn12` ?
0

Short answer needed: outcome of this test for N#Cc1cccc(C2ON=C(c3ccc([N+](=O)[O-])cc3)N2C23CC4CC(CC(C4)C2)C3)c1 (stereo not drawn) ?
0

Short answer needed: outcome of this test for `COc1ccc(OC)c(CCc2cc(OC)ccc2OC)c1` ?
1

Short answer needed: outcome of this test for S=C1SSC2N=CC=CC12 (stereo not drawn) ?
0

Short answer needed: outcome of this test for CSc1nc2c(ncn2C2OC(CO)C(O)C(O)C2O)c(=O)n1C (stereo not drawn) ?
0
